Target: hGIPR (Homo sapiens, UniProt P48546)
Sequence (P48546 22-466): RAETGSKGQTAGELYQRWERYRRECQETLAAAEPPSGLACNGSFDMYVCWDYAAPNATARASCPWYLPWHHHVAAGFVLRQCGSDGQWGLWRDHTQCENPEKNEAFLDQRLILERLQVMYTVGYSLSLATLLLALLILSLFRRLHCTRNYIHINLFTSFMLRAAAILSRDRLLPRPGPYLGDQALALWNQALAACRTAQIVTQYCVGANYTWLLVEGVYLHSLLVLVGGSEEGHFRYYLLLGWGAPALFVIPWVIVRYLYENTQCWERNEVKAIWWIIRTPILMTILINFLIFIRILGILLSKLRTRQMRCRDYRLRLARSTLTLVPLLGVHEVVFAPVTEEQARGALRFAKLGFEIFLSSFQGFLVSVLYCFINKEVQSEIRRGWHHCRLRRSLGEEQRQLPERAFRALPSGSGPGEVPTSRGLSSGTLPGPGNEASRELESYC
Test: Functional cAMP activity in the presence of 1% HSA
Format: cell-based
Conditions: read-out: cAMP Rel EC50, hGIPR
Starred links: 1 amine or outer side, 2 acyl side, 3 side chain; linkers in the order of their positions; H or OH if unused. Non-standard residues stand in square brackets, D forms with d. Groups on a side chain read outwards from the residue. No end group written: not given here. *: point of attachment. C20 diacid = O=C(O)CCCCCCCCCCCCCCCCCCC(=O)*; C18 diacid = O=C(O)CCCCCCCCCCCCCCCCC(=O)*; αMePhe(2-F) = C[C@](N)(Cc1ccccc1F)C(=O)O; γGlu = O=C(O)[C@H](CCC(=O)[*:2])N[*:1]; NMeY = CN[C@@H](Cc1ccc(O)cc1)C(=O)O; αMe4Pal = C[C@](N)(Cc1ccncc1)C(=O)O; αMeY = C[C@](N)(Cc1ccc(O)cc1)C(=O)O; αMeF = C[C@](N)(Cc1ccccc1)C(=O)O; 4Pal = N[C@@H](Cc1ccncc1)C(=O)O; αMeL = CC(C)C[C@](C)(N)C(=O)O; αMeS = C[C@](N)(CO)C(=O)O; Orn = NCCC[C@H](N)C(=O)O; AEEA = NCCOCCOCC(=O)O; Aib = CC(C)(N)C(=O)O
propertyMeasured: EC50

substance	propertyMeasured	valueReported
H-Y[Aib]QGTFTSD[4Pal]SQ[αMeL]LD[Orn]K([AEEA-γGlu-C18 diacid])AQ[Aib]AFIE[αMeY]LLEGGPSSGAPPPSGS-NH2 [Example 911]	EC50	26.6 nM
H-Y[Aib]QGTFTSDFS[Orn][αMeL]LDKK([AEEA-γGlu-C18 diacid])AQ[Aib]AFIEYLIE[Aib]SPSSGAPPPSGS-NH2 [Example 804]	EC50	17.6 nM
H-Y[Aib]QGTFTSD[4Pal]S[Orn][αMeL]LDKK([AEEA-γGlu-C18 diacid])AQ[Aib]AFIEYLLE[dA]GPSSGAPPPSG[4Pal]-NH2 [Example 274]	EC50	27.6 nM
H-Y[Aib]QGT[αMePhe(2-F)]TSDYSILLDKK([AEEA-γGlu-C18 diacid])AQ[Aib]AFIEYLEEGGPSSGAPPPEEG-NH2 [Example 399]	EC50	19.6 nM
Y[Aib]QGTFTSDFS[Orn][αMeL]LDKK([AEEA-γGlu-C18 diacid])AQ[Aib]AFIEWLLEGGHSSGAPPPGGE-NH2 [Example 273]	EC50	21.8 nM
H-Y[Aib]QGT[αMePhe(2-F)]TSDYSKLLDKIAQK([AEEA-γGlu-C20 diacid])AFIEYLIEGGPSSGAPPPSEG-NH2 [Example 339]	EC50	28.8 nM
H-Y[Aib]QGTFTSD[4Pal]SQ[αMeL]LD[Orn]K([γGlu-γGlu-C18 diacid])AQ[αMe4Pal]AFIE[αMeY]LIA[Aib]GPSSGEPPPSGSEE-NH2 [Example 1094]	EC50	5.86 nM
Y[Aib]QGTFTSD[4Pal]SQ[αMeL]LDKK([Glu-γGlu-C18 diacid])AQ[αMe4Pal]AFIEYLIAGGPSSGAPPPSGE-NH2 [Example 1086]	EC50	21.2 nM
H-Y[Aib]QGTFTSDFS[Orn][αMeL]LDKK([AEEA-γGlu-C18 diacid])AQ[Aib]AFIEYLLE[Aib]G[4Pal]SSGAPPPSGS-NH2 [Example 242]	EC50	5.94 nM
H-Y[Aib]QGTFTSDYSI[αMeL]LDKIAAK([AEEA-AEEA-γGlu-C20 diacid])QFVEYLIAGGPSSGEPPPSEG-NH2 [Example 312]	EC50	97.7 nM
H-Y[Aib]QGT[αMePhe(2-F)]TSD[4Pal][αMeS]I[αMeL]LD[Orn]K([AEEA-γGlu-C18 diacid])AA[Aib]EFI[dE][αMeY]LIEGGPSSGAPPPSGQ-OH [Example 722]	EC50	0.953 nM
H-[NMeY][Aib]QGT[αMeF]TSDYSSLLDKIAAK([AEEA-AEEA-γGlu-C20 diacid])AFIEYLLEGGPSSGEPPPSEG-NH2 [Example 297]	EC50	325 nM
